Reference source for all entries: ChEMBL document CHEMBL1125501

- TESTED SYSTEM: Kappa-type opioid receptor (Cavia porcellus)
- Sequence (P41144 whole entry): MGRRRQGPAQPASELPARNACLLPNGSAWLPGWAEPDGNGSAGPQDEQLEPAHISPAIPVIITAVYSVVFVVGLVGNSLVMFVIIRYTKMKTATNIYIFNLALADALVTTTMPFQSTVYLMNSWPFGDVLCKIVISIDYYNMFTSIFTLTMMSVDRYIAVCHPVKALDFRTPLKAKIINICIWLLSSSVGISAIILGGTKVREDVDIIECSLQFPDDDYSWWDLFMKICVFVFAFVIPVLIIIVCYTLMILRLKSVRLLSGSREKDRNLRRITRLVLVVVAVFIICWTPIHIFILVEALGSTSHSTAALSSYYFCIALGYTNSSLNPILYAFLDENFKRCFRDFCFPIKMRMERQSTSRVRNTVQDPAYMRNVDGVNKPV
- ASSAY PROCEDURE: In vito concentration required to displace [3H]-BRM (Kd = 1.0 nM and concentration is 1.8 nM) from opioid receptor kappa 2 in guinea brain membranes.
- Format: cell membranes
EXPERIMENTAL READOUT: Ki (nM)
Reply with just the number (in nM).

Reported Ki, compound Oc1ccc2c3c1O[C@H]1[C@@H](Br)CC[C@@]4(O)[C@@H](C2)N(CC2CC2)CC[C@]314 : ____
7.21

Reported Ki, compound Oc1ccc2c3c1O[C@H]1[C@@H](I)CC[C@@]4(O)[C@@H](C2)N(CC2CC2)CC[C@]314 : ____
8.46
